- assay-target: HLA-A*02:12
- experimental-details: IEDB peptide-MHC binding, purified MHC/competitive/fluorescence; filed as Kd, often an IC50 or EC50 that approximates it; bounds were set here for any values at or beyond the usual limits of such assays
- test-parameters: source organism: Giardia intestinalis ATCC 50581
property-name: pKd
In textbook form, pKd equals minus log to base ten of the concentration in mol/L.

Data point: `GLYLYRFHV` ; pKd = 8.26

---

- assay-target: HLA-A*68:02
- experimental-details: IEDB peptide-MHC binding, purified MHC/competitive/radioactivity; filed as Kd, often an IC50 or EC50 that approximates it; bounds were set here for any values at or beyond the usual limits of such assays
- test-parameters: source organism: Dengue virus 4 Dominica/814669/1981
property-name: Kd (nM)
Number only, in nM; omit the unit.

Data point: `LSMGLITIAV` ; Kd = 78.7

---

- assay-target: HLA-A*31:01
- experimental-details: IEDB peptide-MHC binding, purified MHC/direct/fluorescence; filed as Kd, often an IC50 or EC50 that approximates it; bounds were set here for any values at or beyond the usual limits of such assays
- test-parameters: source organism: Mycobacterium tuberculosis
pKd: −log10 of the molar value.
property-name: pKd

| residue-string | result-value |
| --- | --- |
| FHVNPAFVL | ≤ 4.70 |
| YPARVKCAL | ≤ 4.70 |

# evaluate next
Data point: `RPRCAYLPF` ; pKd = ≤ 4.70

---

Reported Kd values for a set of sequences
- assay-target: HLA-A*23:01
- experimental-details: IEDB peptide-MHC binding, purified MHC/competitive/radioactivity; filed as Kd, often an IC50 or EC50 that approximates it; bounds were set here for any values at or beyond the usual limits of such assays
- test-parameters: source organism: Dengue virus 2 Jamaica/1409/1983
Number only, in µM; omit the unit.

Data point: `PFGDSYIII` ; Kd = 3.96

Data point: `TLYAVATTF` ; Kd = 0.134

Data point: `EVEDYGFGVF` ; Kd = 1

---

- assay-target: HLA-B*51:01
- experimental-details: IEDB peptide-MHC binding, purified MHC/competitive/fluorescence; filed as Kd, often an IC50 or EC50 that approximates it; bounds were set here for any values at or beyond the usual limits of such assays
- test-parameters: source organism: Orthohantavirus tulaense
property-name: Kd

Item `MSRKLHRYI` was tested on HLA-B*51:01; the reported Kd is ≥ 20 µM

---

- assay-target: HLA-B*07:02
- experimental-details: IEDB peptide-MHC binding, purified MHC/direct/fluorescence; filed as Kd, often an IC50 or EC50 that approximates it; bounds were set here for any values at or beyond the usual limits of such assays
- test-parameters: source organism: Influenza A virus (A/Puerto Rico/8/34/Mount Sinai(H1N1))
property-name: Kd (nM)
Number only, in nM; omit the unit.

Data point: `NPALRMKWM` ; Kd = 91

---

- assay-target: HLA-A*02:19
- experimental-details: IEDB peptide-MHC binding, purified MHC/direct/fluorescence; filed as Kd, often an IC50 or EC50 that approximates it; bounds were set here for any values at or beyond the usual limits of such assays
- test-parameters: source organism: Hantaan virus Q32
property-name: pKd
In textbook form, pKd equals minus log to base ten of the concentration in mol/L.

Data point: `FMFNDLLKL` ; pKd = 7.82

---

- assay-target: HLA-A*02:06
- experimental-details: IEDB peptide-MHC binding, purified MHC/competitive/radioactivity; filed as Kd, often an IC50 or EC50 that approximates it; bounds were set here for any values at or beyond the usual limits of such assays
- test-parameters: source organism: Dengue virus 4 Philippines/H241/1956
property-name: Kd

The following sequences have reported results that may help.
| residue-string | property-name | result-value |
| --- | --- | --- |
| LILGAQALPV | Kd | 18.3 nM |
| YVLGIFLRKL | Kd | 32.6 nM |
| VQIENLEYTV | Kd | 4.4 nM |
| KVIGLYGNGV | Kd | 12.3 nM |
| WQIEKASLI | Kd | 43.5 nM |

# evaluate next
Data point: `GQIHLAIMAV` ; Kd = 1.33 nM

---

- assay-target: HLA-B*40:01
- experimental-details: IEDB peptide-MHC binding, purified MHC/direct/fluorescence; filed as Kd, often an IC50 or EC50 that approximates it; bounds were set here for any values at or beyond the usual limits of such assays
- test-parameters: source organism: Corynebacterium glutamicum
property-name: Kd

Data point: `VHDREGNEV` ; Kd = ≥ 20 µM

---

- assay-target: HLA-B*07:02
- experimental-details: IEDB peptide-MHC binding, purified MHC/competitive/radioactivity; filed as Kd, often an IC50 or EC50 that approximates it; bounds were set here for any values at or beyond the usual limits of such assays
- test-parameters: source organism: Lymphocytic choriomeningitis virus (strain Armstrong)
property-name: pKd
In textbook form, pKd equals minus log to base ten of the concentration in mol/L.

Item `EPVPLTVKM` was tested on HLA-B*07:02; the reported pKd is 4.82

---

- assay-target: HLA-B*07:02
- experimental-details: IEDB peptide-MHC binding, purified MHC/direct/fluorescence; filed as Kd, often an IC50 or EC50 that approximates it; bounds were set here for any values at or beyond the usual limits of such assays
- test-parameters: source organism: Campylobacter jejuni
pKd: −log10 of the molar value.
property-name: pKd

Data point: `VSIRGSHHK` ; pKd = ≤ 4.70

---

- assay-target: HLA-B*18:01
- experimental-details: IEDB peptide-MHC binding, purified MHC/direct/fluorescence; filed as Kd, often an IC50 or EC50 that approximates it; bounds were set here for any values at or beyond the usual limits of such assays
- test-parameters: source organism: Cryptosporidium parvum Iowa II
pKd: −log10 of the molar value.
property-name: pKd

Data point: `LPWFLDTTI` ; pKd = ≤ 4.70

---

- assay-target: HLA-A*68:01
- experimental-details: IEDB peptide-MHC binding, purified MHC/competitive/radioactivity; filed as Kd, often an IC50 or EC50 that approximates it; bounds were set here for any values at or beyond the usual limits of such assays
- test-parameters: source organism: Dengue virus 1 Brazil/97-11/1997
property-name: pKd
In textbook form, pKd equals minus log to base ten of the concentration in mol/L.

Data point: `IIPALFEPER` ; pKd = 7.12

---

- assay-target: HLA-C*12:03
- experimental-details: IEDB peptide-MHC binding, purified MHC/direct/fluorescence; filed as Kd, often an IC50 or EC50 that approximates it; bounds were set here for any values at or beyond the usual limits of such assays
- test-parameters: source organism: human gammaherpesvirus 4
property-name: pKd
In textbook form, pKd equals minus log to base ten of the concentration in mol/L.

Data point: `YAAPQLFPV` ; pKd = 8.40

---

- assay-target: HLA-C*04:01
- experimental-details: IEDB peptide-MHC binding, purified MHC/direct/fluorescence; filed as Kd, often an IC50 or EC50 that approximates it; bounds were set here for any values at or beyond the usual limits of such assays
- test-parameters: source organism: Shigella flexneri 2a str. 2457T
property-name: Kd

Data point: `MSPDNALIY` ; Kd = ≥ 20 µM

---

- assay-target: HLA-A*02:01
- experimental-details: IEDB peptide-MHC binding, purified MHC/direct/fluorescence; filed as Kd, often an IC50 or EC50 that approximates it; bounds were set here for any values at or beyond the usual limits of such assays
- test-parameters: source organism: Salmonella enterica subsp. enterica serovar Typhi
property-name: Kd

Item `LPLIVDTAA` was tested on HLA-A*02:01; the reported Kd is ≥ 20 µM

---

- assay-target: HLA-B*58:01
- experimental-details: IEDB peptide-MHC binding, purified MHC/direct/fluorescence; filed as Kd, often an IC50 or EC50 that approximates it; bounds were set here for any values at or beyond the usual limits of such assays
- test-parameters: source organism: Camelpox virus M-96
pKd: −log10 of the molar value.
property-name: pKd

Data point: `IHIPGDTLF` ; pKd = ≤ 4.70

---

- assay-target: HLA-A*11:01
- experimental-details: IEDB peptide-MHC binding, purified MHC/direct/fluorescence; filed as Kd, often an IC50 or EC50 that approximates it; bounds were set here for any values at or beyond the usual limits of such assays
- test-parameters: source organism: Influenza A virus (A/mallard/NZ/1/97(H5N2))
property-name: Kd

Item `IAGFIEGGW` was tested on HLA-A*11:01; the reported Kd is ≥ 20 µM

---

- assay-target: HLA-B*51:01
- experimental-details: IEDB peptide-MHC binding, purified MHC/direct/fluorescence; filed as Kd, often an IC50 or EC50 that approximates it; bounds were set here for any values at or beyond the usual limits of such assays
- test-parameters: source organism: Cryptosporidium parvum Iowa II
property-name: Kd (µM)
Number only, in µM; omit the unit.

Data point: `LPWFLDTTI` ; Kd = 0.034
